experimentalSystem: Serine/threonine-protein phosphatase 5 (Homo sapiens)
methodSummary: inhibition of human PP5 catalytic domain – biochemical, fluorescence, OMFP substrate, powder samples, selectivity assay for PP1 inhibitor project, late-stage follow-up (AID 652224)
experimentalSetup: purified PP5c, OMFP dephosphorylation fluorescence; at 50 µM; active compounds read high
quantityName: inhibition (%)

Answered cases to consult:
INSERT INTO results (compound, experimentalsystem, recordedmeasurement) VALUES
  ('CN1CCN(C(c2ccncc2)c2cc(Cl)c3cccnc3c2O)CC1 (configuration not stated)', 'Serine/threonine-protein phosphatase 5 (Homo sapiens)', 9.09),
  ('Oc1c(CN2CCN(c3ccccn3)CC2)cc(Cl)c2cccnc12', 'Serine/threonine-protein phosphatase 5 (Homo sapiens)', 32.4),
  ('Cc1ccc2ccc(C(c3ccccn3)N3CCN(C)CC3)c(O)c2n1 (configuration not stated)', 'Serine/threonine-protein phosphatase 5 (Homo sapiens)', 24.3),
  ('CN1CCN(C(c2cccs2)c2cc(Cl)c3cccnc3c2O)CC1 (configuration not stated)', 'Serine/threonine-protein phosphatase 5 (Homo sapiens)', 24.7),
  ('Oc1c(C(c2ccccn2)N2CCN(c3ccccc3F)CC2)cc(Cl)c2cccnc12 (configuration not stated)', 'Serine/threonine-protein phosphatase 5 (Homo sapiens)', 27);

(I) Oc1c(C(c2ccccn2)N2CCCC2)ccc2cccnc12 (configuration not stated)
(II) CN1CCN(Cc2cc(Cl)c3cccnc3c2O)CC1
(III) Cc1cccc(C(c2ccc3cccnc3c2O)N2CCN(C)CC2)n1 (configuration not stated)
(IV) COCOc1c(C(c2ccccn2)N2CCN(C)CC2)ccc2cccnc12 (configuration not stated)
(V) CN1CCN(C(c2ccccn2)c2cc(Cl)c3ccccc3c2O)CC1 (configuration not stated)
In this exercise, place the 5 compounds in ascending sequence of their recorded inhibition. Answer by listing the labels in the requested order.
IV, III, V, II, I

Data origin: PubChem BioAssay AID652224
